# TARGET_DESC: H3.3/H4 (human | X. laevis, UniProt P84243 1-136; P62799 1-103)
# METHOD_SUMMARY: FP
PROPERTY_NAME: pIC50
Interpret pIC50 as the negative base-10 log of the concentration measured in mol/L.

# pIC50 lookup, item UBN1(92–175) L148A (protein) NDEEKERHKVEALARKFEEKYGGKKRRKDRIQDLIDMGYGYDESDSFIDNSEAYDEAVPASLTTKYGGFYINSGTLQFRQASES
4.71

# pIC50 lookup, item UBN1(92–175) D127A (protein) NDEEKERHKVEALARKFEEKYGGKKRRKDRIQDLIAMGYGYDESDSFIDNSEAYDELVPASLTTKYGGFYINSGTLQFRQASES
4.68

# pIC50 lookup, item UBN1(92–175) Q123A (protein) NDEEKERHKVEALARKFEEKYGGKKRRKDRIADLIDMGYGYDESDSFIDNSEAYDELVPASLTTKYGGFYINSGTLQFRQASES
4.86

# pIC50 lookup, item UBN1(92–175) G129A (protein) NDEEKERHKVEALARKFEEKYGGKKRRKDRIQDLIDMAYGYDESDSFIDNSEAYDELVPASLTTKYGGFYINSGTLQFRQASES
4.17

# pIC50 lookup, item UBN1(92–175) I122A (protein) NDEEKERHKVEALARKFEEKYGGKKRRKDRAQDLIDMGYGYDESDSFIDNSEAYDELVPASLTTKYGGFYINSGTLQFRQASES
4.77
